TARGET_OF_ASSAY: Vascular endothelial growth factor receptor 2 (Homo sapiens) (UniProt P35968)
Sequence (P35968 whole entry): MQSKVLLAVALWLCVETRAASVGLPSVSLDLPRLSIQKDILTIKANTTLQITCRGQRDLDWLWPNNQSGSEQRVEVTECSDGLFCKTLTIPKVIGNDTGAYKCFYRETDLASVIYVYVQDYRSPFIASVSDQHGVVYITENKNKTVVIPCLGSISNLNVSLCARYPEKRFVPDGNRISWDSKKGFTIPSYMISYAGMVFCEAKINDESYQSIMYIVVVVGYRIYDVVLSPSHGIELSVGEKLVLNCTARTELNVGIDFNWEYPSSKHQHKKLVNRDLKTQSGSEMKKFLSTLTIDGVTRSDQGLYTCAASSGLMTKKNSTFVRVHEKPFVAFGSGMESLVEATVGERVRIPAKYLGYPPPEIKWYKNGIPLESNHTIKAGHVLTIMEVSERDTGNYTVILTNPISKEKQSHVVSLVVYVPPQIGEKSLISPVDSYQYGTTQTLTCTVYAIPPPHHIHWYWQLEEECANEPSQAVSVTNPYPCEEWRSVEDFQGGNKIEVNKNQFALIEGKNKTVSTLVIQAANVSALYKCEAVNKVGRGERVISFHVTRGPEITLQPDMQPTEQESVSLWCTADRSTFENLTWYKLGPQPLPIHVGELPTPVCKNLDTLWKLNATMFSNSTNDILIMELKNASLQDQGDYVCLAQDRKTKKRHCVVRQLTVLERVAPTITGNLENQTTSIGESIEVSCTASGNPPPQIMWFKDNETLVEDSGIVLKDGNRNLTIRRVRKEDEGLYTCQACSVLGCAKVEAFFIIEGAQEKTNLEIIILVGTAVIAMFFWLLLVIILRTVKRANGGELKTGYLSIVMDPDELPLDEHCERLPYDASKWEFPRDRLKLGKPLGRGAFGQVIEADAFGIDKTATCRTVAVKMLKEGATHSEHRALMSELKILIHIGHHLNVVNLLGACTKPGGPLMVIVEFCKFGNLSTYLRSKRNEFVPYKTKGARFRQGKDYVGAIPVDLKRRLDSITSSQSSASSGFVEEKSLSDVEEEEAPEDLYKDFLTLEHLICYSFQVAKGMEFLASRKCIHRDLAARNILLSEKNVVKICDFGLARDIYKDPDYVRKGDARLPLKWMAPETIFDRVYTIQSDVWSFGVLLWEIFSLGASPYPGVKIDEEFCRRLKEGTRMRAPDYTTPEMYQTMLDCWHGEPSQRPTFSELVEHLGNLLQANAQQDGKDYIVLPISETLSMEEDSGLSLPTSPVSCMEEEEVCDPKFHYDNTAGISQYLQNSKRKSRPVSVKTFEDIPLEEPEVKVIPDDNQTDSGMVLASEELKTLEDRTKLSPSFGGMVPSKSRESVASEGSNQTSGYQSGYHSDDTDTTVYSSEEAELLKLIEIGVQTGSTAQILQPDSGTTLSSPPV
PROTOCOL_TEXT: Inhibition of recombinant human KDR (790 to end residues) assessed as residual activity at 1 uM using myelin basic protein as substrate incubated for 40 mins by [gamma-33P]-ATP scintillation counting based radiometry assay relative to control

{"RECORD_SMILES": "CN1CCc2c(sc3ncnc(Nc4ccc(N(C)C)c(NC(=O)c5cccc6ccccc56)c4)c23)C1", "Activity (%)": 87}
{"RECORD_SMILES": "CN(C)CCCN1CCc2c(sc3ncnc(Nc4ccc(N(C)C)c(NC(=O)c5ccco5)c4)c23)C1", "Activity (%)": 80}
{"RECORD_SMILES": "CCC(=O)Nc1cc(Nc2ncnc3sc4c(c23)CCN(CCCN2CCOCC2)C4)ccc1N(C)C", "Activity (%)": 86}
{"RECORD_SMILES": "CN(C)c1ccc(Nc2ncnc3sc4c(c23)CCN(C(=O)c2cccnc2)C4)cc1NC(=O)c1ccco1", "Activity (%)": 93}
{"RECORD_SMILES": "CN(C)c1ccc(Nc2ncnc3sc4c(c23)CCN(C(=O)c2ccccn2)C4)cc1NC(=O)c1cccs1", "Activity (%)": 73}
{"RECORD_SMILES": "CN(C)c1ccc(Nc2ncnc3sc4c(c23)CCN(C(=O)c2ncccn2)C4)cc1NC(=O)c1cccs1", "Activity (%)": 86}
{"RECORD_SMILES": "CN(C)c1ccc(Nc2ncnc3sc4c(c23)CCN(C(=O)c2ncccn2)C4)cc1NC(=O)c1ccco1", "Activity (%)": 81}
{"RECORD_SMILES": "Cc1ccc(C(=O)Nc2cc(Nc3ncnc4sc5c(c34)CCNC5)ccc2N(C)C)cc1", "Activity (%)": 95}
{"RECORD_SMILES": "CN1CCN(CCCN2CCc3c(sc4ncnc(Nc5ccc(N(C)C)c(NC(=O)c6cccs6)c5)c34)C2)CC1", "Activity (%)": 93}

----------
Activity listing for selected compounds.
TARGET_OF_ASSAY: Vascular endothelial growth factor receptor 1 (Homo sapiens)
PROTOCOL_TEXT: Inhibition of recombinant human FLT1 (783 to end residues) assessed as residual activity at 1 uM using KKKSPGEYVNIEFG as substrate incubated for 40 mins by [gamma-33P]-ATP scintillation counting based radiometry assay relative to control
ASSAY_METRIC: Activity (%)

{"RECORD_SMILES": "CN(C)c1ccc(Nc2ncnc3sc4c(c23)CCNC4)cc1NC(=O)c1cccs1", "VALUE_MEASURED": 101}
{"RECORD_SMILES": "CN(C)c1ccc(Nc2ncnc3sc4c(c23)CCN(C(=O)c2ccccn2)C4)cc1NC(=O)c1ccco1", "VALUE_MEASURED": 86}
{"RECORD_SMILES": "CN(C)c1ccc(Nc2ncnc3sc4c(c23)CCNC4)cc1NC(=O)c1cccnc1", "VALUE_MEASURED": 104}
{"RECORD_SMILES": "CN(C)c1ccc(Nc2ncnc3sc4c(c23)CCN(C(=O)c2cnccn2)C4)cc1NC(=O)c1cccs1", "VALUE_MEASURED": 98}
{"RECORD_SMILES": "CN1CCc2c(sc3ncnc(Nc4ccc(N(C)C)c(NC(=O)c5ccco5)c4)c23)C1", "VALUE_MEASURED": 105}
{"RECORD_SMILES": "CCC(=O)Nc1cc(Nc2ncnc3sc4c(c23)CCNC4)ccc1N(C)C", "VALUE_MEASURED": 107}
{"RECORD_SMILES": "CCC(=O)Nc1cc(Nc2ncnc3sc4c(c23)CCN(c2ncccn2)C4)ccc1N(C)C", "VALUE_MEASURED": 106}
{"RECORD_SMILES": "CCC(=O)Nc1cc(Nc2ncnc3sc4c(c23)CCN(CC)C4)ccc1N(C)C", "VALUE_MEASURED": 109}
{"RECORD_SMILES": "CN(C)c1ccc(Nc2ncnc3sc4c(c23)CCN(C(=O)c2cnccn2)C4)cc1NC(=O)c1ccco1", "VALUE_MEASURED": 98}
{"RECORD_SMILES": "CN1CCc2c(sc3ncnc(Nc4ccc(N(C)C)c(NC(=O)c5cccc6ccccc56)c4)c23)C1", "VALUE_MEASURED": 101}
{"RECORD_SMILES": "CN1CCN(CCCN2CCc3c(sc4ncnc(Nc5ccc(N(C)C)c(NC(=O)c6ccco6)c5)c34)C2)CC1", "VALUE_MEASURED": 100}
{"RECORD_SMILES": "CCC(=O)Nc1cc(Nc2ncnc3sc4c(c23)CCN(C)C4)ccc1N(C)C", "VALUE_MEASURED": 95}
{"RECORD_SMILES": "CN(C)c1ccc(Nc2ncnc3sc4c(c23)CCNC4)cc1NC(=O)c1ccncc1", "VALUE_MEASURED": 103}
{"RECORD_SMILES": "CN(C)c1ccc(Nc2ncnc3sc4c(c23)CCN(C(=O)c2cccnc2)C4)cc1NC(=O)c1cccs1", "VALUE_MEASURED": 81}
{"RECORD_SMILES": "CN(C)CCCN1CCc2c(sc3ncnc(Nc4ccc(N(C)C)c(NC(=O)c5ccco5)c4)c23)C1", "VALUE_MEASURED": 91}
{"RECORD_SMILES": "CCC(=O)Nc1cc(Nc2ncnc3sc4c(c23)CCN(Cc2ccccc2)C4)ccc1N(C)C", "VALUE_MEASURED": 106}
{"RECORD_SMILES": "Cc1ccc(C(=O)Nc2cc(Nc3ncnc4sc5c(c34)CCNC5)ccc2N(C)C)cc1", "VALUE_MEASURED": 96}
{"RECORD_SMILES": "CN(C)c1ccc(Nc2ncnc3sc4c(c23)CCN(C(=O)c2ccncc2)C4)cc1NC(=O)c1ccco1", "VALUE_MEASURED": 109}
{"RECORD_SMILES": "CN1CCc2c(sc3ncnc(Nc4ccc(N(C)C)c(NC(=O)c5ccccn5)c4)c23)C1", "VALUE_MEASURED": 94}

----------
TARGET_OF_ASSAY: Epidermal growth factor receptor (Homo sapiens)
PROTOCOL_TEXT: Inhibition of recombinant human EGFR (696 to end residues) assessed as residual activity at 1 uM using poly(Glu, Tyr) 4:1 as substrate incubated for 40 mins by [gamma-33P]-ATP scintillation counting based radiometry assay relative to control

{"RECORD_SMILES": "CCC(=O)Nc1cc(Nc2ncnc3sc4c(c23)CCN(c2ncccn2)C4)ccc1N(C)C", "Activity [%]": 102}
{"RECORD_SMILES": "Cc1ccc(C(=O)Nc2cc(Nc3ncnc4sc5c(c34)CCNC5)ccc2N(C)C)cc1", "Activity [%]": 108}
{"RECORD_SMILES": "CN(C)CCCN1CCc2c(sc3ncnc(Nc4ccc(N(C)C)c(NC(=O)c5cccs5)c4)c23)C1", "Activity [%]": 86}
{"RECORD_SMILES": "CN(C)c1ccc(Nc2ncnc3sc4c(c23)CCNC4)cc1NC(=O)c1ccccn1", "Activity [%]": 103}

----------
TARGET_OF_ASSAY: UniProtKB P35968
PROTOCOL_TEXT: Inhibition of recombinant human KDR (790 to end residues) assessed as residual activity at 1 uM using myelin basic protein as substrate incubated for 40 mins by [gamma-33P]-ATP scintillation counting based radiometry assay relative to control
Classification field: 1 (yes) = Activity at or over 90%; 0 (no) = Activity under 90%.

{"RECORD_SMILES": "CCC(=O)Nc1cc(Nc2ncnc3sc4c(c23)CCN(Cc2ccccc2)C4)ccc1N(C)C", "ANSWER_LABEL": "0 (no)"}
{"RECORD_SMILES": "CN(C)c1ccc(Nc2ncnc3sc4c(c23)CCN(C(=O)c2cccnc2)C4)cc1NC(=O)c1cccs1", "ANSWER_LABEL": "0 (no)"}
{"RECORD_SMILES": "CN(C)c1ccc(Nc2ncnc3sc4c(c23)CCNC4)cc1NC(=O)c1ccccn1", "ANSWER_LABEL": "1 (yes)"}
{"RECORD_SMILES": "CN(C)c1ccc(Nc2ncnc3sc4c(c23)CCN(C(=O)c2ccncc2)C4)cc1NC(=O)c1cccs1", "ANSWER_LABEL": "0 (no)"}
{"RECORD_SMILES": "CCC(=O)Nc1cc(Nc2ncnc3sc4c(c23)CCN(c2ncccn2)C4)ccc1N(C)C", "ANSWER_LABEL": "0 (no)"}
{"RECORD_SMILES": "CN1CCc2c(sc3ncnc(Nc4ccc(N(C)C)c(NC(=O)c5cccnc5)c4)c23)C1", "ANSWER_LABEL": "1 (yes)"}
{"RECORD_SMILES": "CN(C)c1ccc(Nc2ncnc3sc4c(c23)CCN(C(=O)c2cnccn2)C4)cc1NC(=O)c1cccs1", "ANSWER_LABEL": "0 (no)"}
{"RECORD_SMILES": "CN1CCc2c(sc3ncnc(Nc4ccc(N(C)C)c(NC(=O)c5ccncc5)c4)c23)C1", "ANSWER_LABEL": "0 (no)"}
{"RECORD_SMILES": "CN(C)CCCN1CCc2c(sc3ncnc(Nc4ccc(N(C)C)c(NC(=O)c5cccs5)c4)c23)C1", "ANSWER_LABEL": "0 (no)"}
